molecular target: hCB2 receptor (Homo sapiens); assay: cAMP assay, forskolin-stimulated cAMP in HEK293 cells expressing hCB2; assay type: cell-based; conditions: cAMP functional test
Sequence (P34972 whole entry): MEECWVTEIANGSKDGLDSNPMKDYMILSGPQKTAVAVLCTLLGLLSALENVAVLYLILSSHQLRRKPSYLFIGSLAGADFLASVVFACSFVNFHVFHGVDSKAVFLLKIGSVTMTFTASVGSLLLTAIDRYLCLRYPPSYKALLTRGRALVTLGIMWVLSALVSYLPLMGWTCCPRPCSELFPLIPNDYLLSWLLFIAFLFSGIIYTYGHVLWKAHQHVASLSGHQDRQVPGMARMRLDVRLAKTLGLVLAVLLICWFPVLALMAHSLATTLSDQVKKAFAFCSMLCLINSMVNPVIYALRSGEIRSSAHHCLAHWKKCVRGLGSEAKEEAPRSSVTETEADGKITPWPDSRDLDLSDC

>  <SAMPLE_SMILES>
CC1(C)Oc2cc([C@]34CC5CC(C[C@@](N=C=S)(C5)C3)C4)cc(O)c2[C@@H]2C[C@H](O)CC[C@H]21

>  <classification hCB2>
neutral antagonists

$$$$
>  <SAMPLE_SMILES>
CC1(C)Oc2cc([C@]34CC5CC(C[C@@](CN=[N+]=[N-])(C5)C3)C4)cc(O)c2[C@@H]2C[C@H](O)CC[C@H]21

>  <classification hCB2>
neutral antagonists

$$$$
>  <SAMPLE_SMILES>
CC1(C)Oc2cc([C@]34CC5CC(C[C@@](CC#N)(C5)C3)C4)cc(O)c2[C@@H]2C[C@H](O)CC[C@H]21

>  <classification hCB2>
inverse agonist

$$$$
>  <SAMPLE_SMILES>
CC1(C)Oc2cc([C@]34CC5CC(C[C@@](CN=C=S)(C5)C3)C4)cc(O)c2[C@@H]2C[C@H](O)CC[C@H]21

>  <classification hCB2>
inverse agonist

$$$$
>  <SAMPLE_SMILES>
CC1(C)Oc2cc([C@]34CC5CC(C[C@@](N=[N+]=[N-])(C5)C3)C4)cc(O)c2[C@@H]2C[C@H](O)CC[C@H]21

>  <classification hCB2>
neutral antagonists

$$$$
>  <SAMPLE_SMILES>
COC(=O)N[C@]12CC3CC(C1)C[C@](c1cc(O)c4c(c1)OC(C)(C)[C@@H]1CC[C@@H](O)C[C@@H]41)(C3)C2

>  <classification hCB2>
inverse agonist

$$$$
>  <SAMPLE_SMILES>
CC1(C)Oc2cc([C@]34CC5CC(C[C@@](C#N)(C5)C3)C4)cc(O)c2[C@@H]2C[C@H](O)CC[C@H]21

>  <classification hCB2>
inverse agonist

$$$$
